Reference for the values: patent US20240092930A1

Listing of entries alongside the reported Kd.
Biological target: T1, recombinant human Trop-2-his protein (ACCESSION NO.: NP_002344.2, AA 1-274) (human, UniProt P09758 27-274)
T1 construct: range 27-274; also called recombinant human Trop-2 protein; recombinant human Trop-2 extracellular domain; not shown: his tag
T1 sequence (looked up): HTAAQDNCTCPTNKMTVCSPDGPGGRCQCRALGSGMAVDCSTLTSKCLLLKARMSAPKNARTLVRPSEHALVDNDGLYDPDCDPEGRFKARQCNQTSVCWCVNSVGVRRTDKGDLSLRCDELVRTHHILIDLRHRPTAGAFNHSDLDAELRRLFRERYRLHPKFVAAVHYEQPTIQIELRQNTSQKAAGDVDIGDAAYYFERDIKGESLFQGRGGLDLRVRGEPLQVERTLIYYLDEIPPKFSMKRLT
Assay: BLI, antibody on AHC sensor, Trop-2-his 60 nM
Form entry: value (nM) — number only.

Answered cases to consult:
{"columns": ["BINDER", "Kd (nM)"],
 "data": [
  ["h11-4-18 (antibody, human IgG1, kappa, name in Kabat numbering, V domains shown) VH: EVQLVQSGAEVKKPGASVKVSCKASGYTFTSYWINWVRQAPGQGLEWMGNIYPSNSYTNYNQKFKDRVTMTRDTSTSTVYMELSSLRSEDTAVYYCSSYRSEGFAYWGQGTLVTVSS VL: EIVLTQSPATLSLSPGERATLSCRASQNIGTSIAWYQQKPGQAPRLLIEFASESISGIPARFSGSGSGTDFTLTISSLEPEDFAVYYCQQSNSWPFTFGGGTKVEIKR", 0.394],
  ["h11-4-14 (antibody, human IgG1, kappa, name in Kabat numbering, V domains shown) VH: EVQLVQSGAEVKKPGASVKVSCKASGYTFTSYWINWVRQAPGQGLEWMGNIYPSNSYTNYNQKFKDRVTMTRDTSTSTVYMELSSLRSEDTAVYYCSSYRSEGFAYWGQGTLVTVSS VL: EIVLTQSPATLSLSPGERATLSCRASQNIGTSISWYQQKPGQAPRLLIEFASESISGIPARFSGSGSGTDFTLTISSLEPEDFAVYYCQQSNSWPFTFGGGTKVEIKR", 0.352],
  ["h11-4-13 (antibody, human IgG1, kappa, name in Kabat numbering, V domains shown) VH: EVQLVQSGAEVKKPGASVKVSCKASGYTFTSYWINWVRQAPGQGLEWMGNIYPSNSYTNYNQKFKDRVTMTRDTSTSTVYMELSSLRSEDTAVYYCSSYRSDGFAYWGQGTLVTVSS VL: EIVLTQSPATLSLSPGERATLSCRASQNIGTSISWYQQKPGQAPRLLIEFASESISGIPARFSGSGSGTDFTLTISSLEPEDFAVYYCQQSNSWPFTFGGGTKVEIKR", 0.211]
]}

Given the entry h11-4-8 (antibody, human IgG1, kappa, name in Kabat numbering, V domains shown) VH: EVQLVQSGAEVKKPGASVKVSCKASGYTFTSYWINWVRQAPGQGLEWMGNIYPSNSYTNYNQKFKDRVTMTRDTSTSTVYMELSSLRSEDTAVYYCSSYRSDGFAYWGQGTLVTVSS VL: EIVLTQSPATLSLSPGERATLSCRASQNIGTSIHWYQQKPGQAPRLLIEFASESISGIPARFSGSGSGTDFTLTISSLEPEDFAVYYCQQSNSWPFTFGGGTKVEIKR , report its measured Kd.
0.222

So what's the measured Kd for this one? h11-4-9 (antibody, human IgG1, kappa, name in Kabat numbering, V domains shown) VH: EVQLVQSGAEVKKPGASVKVSCKASGYTFTSYWINWVRQAPGQGLEWMGNIYPSNSYTNYNQKFKDRVTMTRDTSTSTVYMELSSLRSEDTAVYYCSSYRSDGFAYWGQGTLVTVSS VL: EIVLTQSPATLSLSPGERATLSCRASQNIGTSIEWYQQKPGQAPRLLIEFASESISGIPARFSGSGSGTDFTLTISSLEPEDFAVYYCQQSNSWPFTFGGGTKVEIKR
0.301
